# assay_name: NCI Yeast Anticancer Drug Screen. Data for the cln2 rad14 strain (AID 165);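 note: 0% = growth equal to vehicle treated cultures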
# conditions: S. cerevisiae cln2 rad14 strain, at 50.0 µM (retest, dose inferred, filed as 5.0), active compounds read high
About 79,000 compounds went through this panel and 15% of them were active in at least one assay; those are over-represented in the sample as a whole. The source made the active and inactive calls. Cut-off read from the data, not from the text of the source: active = growth inhibition above about 70%; inactive = the rest.
recorded_endpoint: growth inhibition

Here's what some known entries look like.
molecule=Cc1ccc(C)c(C(=O)CCN)c1 recorded_endpoint="growth inhibition" result="2% (inactive)"
molecule=COc1ccc(/C=N/NS(=O)(=O)c2ccccc2)cc1 recorded_endpoint="growth inhibition" result="-7% (inactive)"
molecule="CCC(C)C(C(=O)NOC(=O)c1ccccc1)/C(N)=N/OC(=O)c1ccccc1 (stereo not given)" recorded_endpoint="growth inhibition" result="99% (active)"
molecule=O=C(O)/C=C/C(=O)NNc1nc2ccccc2s1 recorded_endpoint="growth inhibition" result="1% (inactive)"
molecule=O=C1c2ccccc2-c2cc3ccccc3nc21 recorded_endpoint="growth inhibition" result="73% (active)"
molecule=C[n+]1c(-c2ccc(/C=N/Nc3n[nH]c(=S)n3/N=C/c3ccc(-c4cn5ccsc5[n+]4C)cc3)cc2)cn2ccsc21 recorded_endpoint="growth inhibition" result="94% (active)"
molecule=C=CCN1/C(=C/C=C\c2sc3ccccc3[n+]2CC=C)Sc2ccccc21 recorded_endpoint="growth inhibition" result="99% (active)"
molecule=CCCCNCc1c(O)ccc2ccccc12 recorded_endpoint="growth inhibition" result="98% (active)"
molecule="C=C1CC23CCC4C(C)(C(=O)O)CCCC4(C)C2CCC1C3 (stereo not given)" recorded_endpoint="growth inhibition" result="97% (active)"
molecule="O=C(NCCCCCN1CCC2(CCCCC2)CC1)C(c1ccccc1)C1CCCCC1 (stereo not given)" recorded_endpoint="growth inhibition" result="99% (active)"

If you can, please state the reported growth inhibition value of `Cc1cc(NCCO)nc2c1ccc1ccccc12` .
23% (inactive)

Dear colleague, I am looking for the recorded growth inhibition of the following molecule: CN(Cc1cnc2nc(N)nc(N)c2n1)c1ccc(C(=O)NC(CCC(=O)O)C(=O)O)cc1C(F)(F)F (stereo not given)
5% (inactive)

I have this molecule here, C/C(=N/O)c1ccc2c(c1)C(C)c1ccccc1-2 (stereo not given) , and I need its recorded growth inhibition.
-66% (inactive)

# get_value(readout='growth inhibition', item= COc1cccc2c1OC(c1ccc(Cl)cc1)C([N+](=O)[O-])=C2 (stereo not given) )
95% (active)

Bench note: what growth inhibition did `Cc1c2[nH]c3ccc(Br)cc3c2c(C)c2[nH]ccc(=O)c12` show?
57% (inactive)

---

# assay_name: NCI Yeast Anticancer Drug Screen. Data for the bub3 strain (AID 167)
# conditions: S. cerevisiae bub3 mutant strain, at 50.0 µM
# Description: Growth inhibition of yeast strains with defined genetic alterations is measured as a screen for potential anti-cancer activity. Selected strains with alterations in DNA damage repair or cell cycle control were exposed to compounds and growth inhibition was measured relative to vehicle treated controls. The strain used in this assay is bub3
This is part of a sample that, as a whole, favours compounds with a hit. Of some 79,000 tested, about 15% had one in any assay. Active and inactive are the calls of the source. Cut-off read from the data, not from the text of the source: active = growth inhibition above about 70%; inactive = the rest.
Mark one answer only. Choices: 1 = active, -1 = inactive

Completed entries (count: 3):
compound="Cc1ccccc1C1SCc2nc3ccccc3n21 (stereo not drawn)" category_label=-1
compound=O=c1oc2c3ccc4ccccc4c3n(CCCN3CCCCC3)c2c2ccccc12 category_label=1
compound=COc1ccc(CCCCI)cc1 category_label=1

Please look at the following compound next.
Each compound tested received a call. Report the one for CCCC(C1=C(O)CC(C)CC1=O)C1=C(O)CC(C)CC1=O (stereo not drawn) .
-1
